# ASSAYED SYSTEM: C-terminal His6-tagged human JAK2 kinase (Homo sapiens, UniProt O60674)
# Construct: His6 (C)
# TEST DETAILS: JAK2 Amplified Luminescent Proximity Homogeneous Assay (ALPHA) (Method 3)
# CONDITION: biotinylated Tyk substrate, 20 minutes preincubation, 90 minutes at 25° C.
QUANTITY: IC50 (µM)

I: CC(Nc1nc(Nc2cn(C)cn2)c2cc[nH]c2n1)c1ncc(F)cc1F (single isomer, unassigned) [Example 25(a)]
II: CCn1ncc2c(Nc3cn(C)cn3)nc(NC(C)c3ncc(F)cn3)nc21 (single isomer, unassigned) [Example 9(a)]
QUERY: Could you point out whether the larger IC50 belongs to I or to II ? To answer, give the label that identifies your chosen option.
RESULT: II

###

# ASSAYED SYSTEM: C-terminal His6-tagged, recombinant, human JAK2, amino acids 808-end (Homo sapiens, UniProt O60674)
# Construct: His6 (C); purchased Upstate Biotechnology MA; host or cells: baculovirus in Sf21 cells
# Sequence (O60674 808-1132 limits assumed): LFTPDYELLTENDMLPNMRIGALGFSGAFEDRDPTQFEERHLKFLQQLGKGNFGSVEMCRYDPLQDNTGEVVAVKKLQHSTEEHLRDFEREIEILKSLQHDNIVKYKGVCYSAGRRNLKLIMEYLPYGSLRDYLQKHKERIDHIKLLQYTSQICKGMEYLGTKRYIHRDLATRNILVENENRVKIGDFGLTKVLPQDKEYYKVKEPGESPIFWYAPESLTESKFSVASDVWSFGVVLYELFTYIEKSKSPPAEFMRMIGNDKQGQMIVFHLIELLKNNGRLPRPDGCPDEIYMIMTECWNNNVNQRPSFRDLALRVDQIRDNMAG
# TEST DETAILS: JAK2 kinase Alphascreen assay (Method 1)
# Type: biochemical
# CONDITION: Alphascreen, 150 pM JAK2 enzyme, 5 mM ATP, 80 nM Tyk2 peptide, 60 minutes room temperature; read-out: IC50 Assay (Method 1)
# Method: To measure JAK2 kinase activity, a commercially available purified enzyme may be used. […] The reaction may be performed in 384 well microtitre plates and the reaction products may be detected with the addition of streptavidin coated Donor Beads and phosphotyrosine-specific antibodies coated Acceptor Beads using the EnVision Multilabel Plate Reader after an overnight incubation at room temperature. […]
QUANTITY: IC50 (nM)

I: CC(Nc1nc(Nc2cn(C)cn2)c2ccc(O)nc2n1)c1ncc(F)cc1F (racemic)
II: CC(Nc1nc2c(c(Nc3cn(C)cn3)n1)CNCC2)c1ncc(F)cn1 (single isomer, unassigned) [17(a)]
QUERY: Could you point out whether the larger IC50 belongs to I or to II ? To answer, give the label that identifies your chosen option.
RESULT: II

###

# ASSAYED SYSTEM: N-terminal GST-tagged, recombinant, human JAK2 (amino acids 831-1132) (Homo sapiens, UniProt O60674)
# Construct: human JAK2 (amino acids 831-1132, PLAZA database pAZB0359); GST (N)
# TEST DETAILS: JAK2 mobility shift assay on Caliper LC3000 (Method 2)
# CONDITION: 0.3 nM JAK2 enzyme, 5 mM ATP, 1.5 μM SRCtide, 90 minutes room temperature
pIC50: −log10 of the molar value.
QUANTITY: pIC50

| MOLECULE | pIC50 |
| --- | --- |
| COc1cnc(C(C)Nc2nc(Nc3cn(C)cn3)c3cc[nH]c3n2)nc1 (single isomer, unassigned) [Example 27(a)] | 4.75 |

1: CC(Nc1nc(Nc2cn(C)cn2)c2cc[nH]c2n1)c1ncc(F)cc1F (single isomer, unassigned) [Example 25(b)]
2: CC(Nc1nc(Nc2cn(C)cn2)c2ccn(CCF)c2n1)c1ncc(F)cn1 (single isomer, unassigned) [Example 22(a)]
3: CC(Nc1nc(Nc2cn(C)cn2)c2cc(F)cnc2n1)c1ncc(F)cc1F (single isomer, unassigned) [Example 31(b)]
QUERY: Put the molecules in ascending order of pIC50. Dear reader, please state the labels in the requested order.
RESULT: 3, 2, 1

Values from patent US20110201628A1
